Listed here: items and their measured inhibition at 100 µM.
system: UniProtKB P49917
experiment_notes: High-throughput fluorescence-based DNA joining (ligation) assay
Type: biochemical
experimental_conditions: 100 μM; read-out: % of inhibition @ 100 μM (Helen's data) hLigIV
Description: The method for screening compounds comprises testing the compound for the ability to inhibit human DNA ligases I, III and IV with a high throughput fluorescence-based ligation assay. In this assay, phosphodiester bond formation covalently links together two oligonucleotides, one of which is a fluorescent donor AF488 that is 11 nucleotides from the 3′ terminus and the other contains a fluorescence acceptor and quencher, BHQ1 that is 15 nucleotides from the 5′ terminus. […]
quantity_kind: inhibition at 100 µM

                                    molecule            system  result
 0  O=C(Cn1cnc([N+](=O)[O-])n1)N/N=C/c1ccc(O)cc1O [Compound 151]  UniProtKB P49917   < 20%
 1  Oc1nn(-c2ccc(Br)cc2)cc1Br [Compound 221]  UniProtKB P49917   < 20%
 2  O=C(Nc1nc2ccccc2s1)c1ccc(Cl)c([N+](=O)[O-])c1 [Compound 165]  UniProtKB P49917   37.2%
 3  Nn1cnnc1N/N=C/c1cc([N+](=O)[O-])c(Cl)cc1Cl [Compound 195]  UniProtKB P49917   < 20%
 4  O=C(O)c1ccccc1Nc1ccc([N+](=O)[O-])c2nonc12 [Compound 16]  UniProtKB P49917   < 20%
 5  Cc1c(Br)cc(NCC(=O)N/N=C\c2cc([N+](=O)[O-])ccc2O)cc1Br [Compound 67]  UniProtKB P49917   < 20%
 6        COC(=O)c1scc(Br)c1O [Compound 124]  UniProtKB P49917   < 20%
 7  O=C(c1ccc(O)cc1)c1ccccc1O [Compound 200]  UniProtKB P49917   < 20%
 8  O=C(O)CSc1cc(Cl)c2nonc2c1[N+](=O)[O-] [Compound 64]  UniProtKB P49917     52%
 9       Sc1nccc(-c2cccnc2)n1 [Compound 130]  UniProtKB P49917   < 20%
10  O=C(COC(=O)c1ccc2ccccc2c1O)c1cccs1 [Compound 214]  UniProtKB P49917     40%
11  O=c1[nH]cc(/C=N/Nc2ncnc3[nH]cnc23)c(=O)[nH]1 [Compound 208]  UniProtKB P49917   < 20%
12  Cc1oc(C(=O)O)cc1CSCc1cc(C(=O)O)c(C)o1 [Compound 197]  UniProtKB P49917     57%
13  O=C(O)c1ccc([N+](=O)[O-])c(C(=O)O)n1 [Compound 212]  UniProtKB P49917   < 20%
14  C=CCN1C(=O)/C(=C\c2ccccc2C(=O)O)SC1=S [Compound 159]  UniProtKB P49917   < 20%

###

Listed here: items and their measured inhibition at 100 µM.
system: human DNA ligase IV (Homo sapiens, UniProt P49917)
Sequence (P49917 whole entry): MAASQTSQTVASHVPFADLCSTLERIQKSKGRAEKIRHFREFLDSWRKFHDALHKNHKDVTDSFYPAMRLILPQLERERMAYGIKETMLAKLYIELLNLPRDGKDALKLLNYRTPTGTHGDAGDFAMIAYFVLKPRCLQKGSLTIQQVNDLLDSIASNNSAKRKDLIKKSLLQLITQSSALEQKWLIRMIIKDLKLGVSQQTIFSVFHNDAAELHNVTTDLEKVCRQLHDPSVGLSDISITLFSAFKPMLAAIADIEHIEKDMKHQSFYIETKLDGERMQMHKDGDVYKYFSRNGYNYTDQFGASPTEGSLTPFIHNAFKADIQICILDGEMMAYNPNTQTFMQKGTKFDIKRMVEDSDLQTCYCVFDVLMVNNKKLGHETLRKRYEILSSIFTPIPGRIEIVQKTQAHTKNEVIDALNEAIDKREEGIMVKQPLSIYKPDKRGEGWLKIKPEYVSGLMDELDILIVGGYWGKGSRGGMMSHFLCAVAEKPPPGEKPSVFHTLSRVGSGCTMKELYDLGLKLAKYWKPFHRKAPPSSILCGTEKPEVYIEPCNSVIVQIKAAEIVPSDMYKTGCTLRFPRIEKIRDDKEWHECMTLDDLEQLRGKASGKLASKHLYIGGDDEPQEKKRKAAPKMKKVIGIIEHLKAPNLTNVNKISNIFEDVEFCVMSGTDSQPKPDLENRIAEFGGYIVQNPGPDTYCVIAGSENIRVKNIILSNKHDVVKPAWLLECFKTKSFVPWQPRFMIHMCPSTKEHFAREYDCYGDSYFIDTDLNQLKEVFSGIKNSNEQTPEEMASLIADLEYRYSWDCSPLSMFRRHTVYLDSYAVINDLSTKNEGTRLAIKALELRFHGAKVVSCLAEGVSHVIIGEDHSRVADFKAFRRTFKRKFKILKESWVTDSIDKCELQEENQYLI
Sequence (Q13426 whole entry partner): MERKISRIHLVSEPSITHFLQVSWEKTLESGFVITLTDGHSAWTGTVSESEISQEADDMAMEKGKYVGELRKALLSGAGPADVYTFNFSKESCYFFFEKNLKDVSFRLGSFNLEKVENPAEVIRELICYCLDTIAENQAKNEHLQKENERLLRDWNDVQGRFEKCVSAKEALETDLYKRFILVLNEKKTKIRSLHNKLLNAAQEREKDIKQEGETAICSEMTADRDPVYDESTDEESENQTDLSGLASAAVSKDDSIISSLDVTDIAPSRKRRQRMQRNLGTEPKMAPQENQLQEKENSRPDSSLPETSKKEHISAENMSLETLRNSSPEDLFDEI
experiment_notes: High-throughput fluorescence-based DNA joining (ligation) assay
Type: biochemical
experimental_conditions: 100 uM; Ø not defined (0 in Table 5A); read-out: % activity Inhibition hLigIV 100 uM
quantity_kind: inhibition at 100 µM (%)

>>> df
                          structure_smiles  limit_qualifier  numeric_value
0  O=C(O)c1cnn2c(C(F)(F)F)cc(-c3ccco3)nc12                =           60.7
1    O=C(O)CSc1cc(Cl)c2nonc2c1[N+](=O)[O-]                =           51.9
2    Cc1oc(C(=O)O)cc1CSCc1cc(C(=O)O)c(C)o1                >             60
3             Nc1nc(S)nc(O)c1/N=C/c1ccccc1                >             50
4                 CCn1nc(N)c2c(O)nc(O)cc21                =           37.6
5                      O=C(O)Cc1cncc(Br)c1                =           16.1

###

Listed here: items and their measured EC50.
Test system: MCF7, HCT116, HeLa, and MCF10A cells
experiment_notes: Survival assay on cell panel (FIG. 9)
Assay type: cell-based, human
experimental_conditions: Homo sapiens; cell line not stated
quantity_kind: EC50

>>> print(df.to_string())
                           structure_smiles                                system  quantity_kind    result
0  O=c1[nH]ncc(N/N=C\c2ccc(O)c([N+](=O)[O-])c2)c1Cl  MCF7, HCT116, HeLa, and MCF10A cells           EC50    ~50 µM
1   O=C(O)c1cnn2c(C(F)(F)F)cc(-c3ccco3)nc12  MCF7, HCT116, HeLa, and MCF10A cells           EC50  > 100 µM
2  Cc1c(Br)cc(NCC(=O)N/N=C\c2cc([N+](=O)[O-])ccc2O)cc1Br  MCF7, HCT116, HeLa, and MCF10A cells           EC50    ~10 µM

###

Listed here: items and their measured inhibition at 100 µM.
system: T4 DNA ligase (Enterobacteria phage T4)
Construct: purchased NEB
Sequence (P00970 whole entry): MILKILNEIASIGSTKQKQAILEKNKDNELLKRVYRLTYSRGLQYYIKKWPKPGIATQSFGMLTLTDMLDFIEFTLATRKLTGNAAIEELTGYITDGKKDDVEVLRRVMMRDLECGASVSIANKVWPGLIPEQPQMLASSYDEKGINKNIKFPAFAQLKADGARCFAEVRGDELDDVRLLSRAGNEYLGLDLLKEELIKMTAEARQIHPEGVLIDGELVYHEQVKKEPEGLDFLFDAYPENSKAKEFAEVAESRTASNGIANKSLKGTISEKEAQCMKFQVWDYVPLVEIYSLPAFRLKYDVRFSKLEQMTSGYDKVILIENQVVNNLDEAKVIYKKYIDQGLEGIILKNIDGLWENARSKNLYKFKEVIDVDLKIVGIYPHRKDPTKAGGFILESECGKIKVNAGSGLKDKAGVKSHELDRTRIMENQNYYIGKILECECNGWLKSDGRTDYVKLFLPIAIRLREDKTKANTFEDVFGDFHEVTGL
experiment_notes: High-throughput fluorescence-based DNA joining assay, non-specific inhibitor control
Type: biochemical, bacteriophage T4
experimental_conditions: 100 μM; read-out: In vitro % inhib T4 100
quantity_kind: inhibition at 100 µM (%)

>>> print(df.to_string())
                           structure_smiles         quantity_kind  unit_descriptor  numeric_value
0                     CCCCC(=O)c1ccc(O)cc1O  inhibition at 100 µM                %              0
1  O=C(Cn1cnc([N+](=O)[O-])n1)N/N=C/c1ccc(O)cc1O  inhibition at 100 µM                %              0
2  N#Cc1cn(CCCCCCCc2[nH]c(=O)[nH]c(=O)c2C#N)c(=O)[nH]c1=O  inhibition at 100 µM                %              0
3              Nc1nc(S)nc(O)c1/N=C/c1ccccc1  inhibition at 100 µM                %              3
4                         CSc1ccc(C(=O)O)s1  inhibition at 100 µM                %              0
5     Cc1oc(C(=O)O)cc1CSCc1cc(C(=O)O)c(C)o1  inhibition at 100 µM                %             24

###

system: human DNA ligase III (Homo sapiens)
Sequence (P49916 1-862 isoform P49916-4): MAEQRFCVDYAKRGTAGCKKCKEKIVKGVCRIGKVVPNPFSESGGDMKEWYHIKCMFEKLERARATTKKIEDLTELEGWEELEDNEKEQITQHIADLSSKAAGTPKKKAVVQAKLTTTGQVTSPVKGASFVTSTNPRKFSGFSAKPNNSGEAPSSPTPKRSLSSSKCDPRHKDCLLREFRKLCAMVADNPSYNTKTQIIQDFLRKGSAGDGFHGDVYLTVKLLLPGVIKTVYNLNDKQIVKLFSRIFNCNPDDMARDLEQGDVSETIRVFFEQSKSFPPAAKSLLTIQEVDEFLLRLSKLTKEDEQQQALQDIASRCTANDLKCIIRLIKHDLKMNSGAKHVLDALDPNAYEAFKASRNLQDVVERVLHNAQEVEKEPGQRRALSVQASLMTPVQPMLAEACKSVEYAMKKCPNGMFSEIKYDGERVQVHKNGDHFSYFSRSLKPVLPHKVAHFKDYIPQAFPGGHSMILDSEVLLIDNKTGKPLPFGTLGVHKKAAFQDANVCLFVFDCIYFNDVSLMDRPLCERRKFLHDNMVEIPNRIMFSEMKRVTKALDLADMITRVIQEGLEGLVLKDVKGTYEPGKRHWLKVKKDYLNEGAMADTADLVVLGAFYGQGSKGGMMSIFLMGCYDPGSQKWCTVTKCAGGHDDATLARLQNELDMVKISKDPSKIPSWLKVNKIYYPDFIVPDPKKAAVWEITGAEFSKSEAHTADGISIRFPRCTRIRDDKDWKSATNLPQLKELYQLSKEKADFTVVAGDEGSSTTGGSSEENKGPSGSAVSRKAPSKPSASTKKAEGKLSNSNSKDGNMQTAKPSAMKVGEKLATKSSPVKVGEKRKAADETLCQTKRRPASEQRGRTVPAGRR
experiment_notes: High-throughput fluorescence-based DNA joining (ligation) assay
Assay type: biochemical
experimental_conditions: 100 μM; read-out: In vitro % inhib hLigIII 100
quantity_kind: inhibition at 100 µM (%)

>>> df
                                   compound  numeric_value
0  Nc1nc(S)nc(O)c1/N=C/c1ccccc1 [Compound 189]             53
1  COc1ccc(-c2cnc3c(O)nc(O)nc3n2)cc1 [Compound 190]              0
2  O=C(Cn1cnc([N+](=O)[O-])n1)N/N=C/c1ccc(O)cc1O [Compound 151]              0
3  O=C(c1ccc(O)cc1)c1ccccc1O [Compound 200]             60
4    CCn1nc(N)c2c(O)nc(O)cc21 [Compound 93]              0
5            CSc1ccc(C(=O)O)s1 [Compound 1]              0

###

system: hLigI (Homo sapiens)
Construct: made in house
Sequence (P18858 whole entry): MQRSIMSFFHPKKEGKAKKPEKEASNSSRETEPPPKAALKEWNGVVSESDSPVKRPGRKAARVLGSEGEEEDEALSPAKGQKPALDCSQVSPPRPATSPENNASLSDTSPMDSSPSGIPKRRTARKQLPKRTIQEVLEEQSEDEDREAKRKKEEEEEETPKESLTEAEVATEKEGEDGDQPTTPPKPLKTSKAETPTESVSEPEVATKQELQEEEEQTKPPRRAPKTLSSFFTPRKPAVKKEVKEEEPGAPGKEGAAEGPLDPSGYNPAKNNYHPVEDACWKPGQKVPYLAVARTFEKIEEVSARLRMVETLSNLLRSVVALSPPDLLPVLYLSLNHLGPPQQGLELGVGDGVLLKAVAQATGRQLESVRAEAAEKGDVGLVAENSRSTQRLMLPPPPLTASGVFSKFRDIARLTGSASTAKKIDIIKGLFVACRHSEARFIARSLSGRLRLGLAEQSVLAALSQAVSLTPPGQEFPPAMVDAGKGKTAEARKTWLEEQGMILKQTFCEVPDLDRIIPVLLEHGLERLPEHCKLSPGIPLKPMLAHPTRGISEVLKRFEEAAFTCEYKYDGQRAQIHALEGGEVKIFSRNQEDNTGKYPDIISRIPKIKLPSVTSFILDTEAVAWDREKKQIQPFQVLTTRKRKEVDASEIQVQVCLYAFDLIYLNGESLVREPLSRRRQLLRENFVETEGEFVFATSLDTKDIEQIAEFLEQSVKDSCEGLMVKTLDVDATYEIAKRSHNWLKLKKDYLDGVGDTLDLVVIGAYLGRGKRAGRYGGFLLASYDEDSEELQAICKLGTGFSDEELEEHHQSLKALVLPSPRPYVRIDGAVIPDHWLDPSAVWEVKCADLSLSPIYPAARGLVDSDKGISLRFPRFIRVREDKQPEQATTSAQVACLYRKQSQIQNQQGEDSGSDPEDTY
experiment_notes: High-throughput fluorescence-based DNA joining (ligation) assay
Format: biochemical
experimental_conditions: 100 μM; read-out: % of inhibition @ 100 μM (Helen's data) hLigI
Listed here: items and their measured inhibition at 100 µM.
quantity_kind: inhibition at 100 µM (%)

                                   compound  limit_qualifier  numeric_value
0        COC(=O)c1scc(Br)c1O [Compound 124]                <             20
1  Oc1nn(-c2ccc(Br)cc2)cc1Br [Compound 221]                >             20
2  O=C(O)CSc1cc(Cl)c2nonc2c1[N+](=O)[O-] [Compound 64]                =             61
3  O=C(Cn1cnc([N+](=O)[O-])n1)N/N=C/c1ccc(O)cc1O [Compound 151]                =             25
4  O=C(c1ccc(O)cc1)c1ccccc1O [Compound 200]                =             51
